study-system: THOC4 (ALYREF) (UniProt Q86V81 Q86V81:2-257)
test: SPR; LSA_In3E3 = 1
Classification by binding signal | ranges: low band = under 0.08 normalized Rmax, middle band = from 0.08 normalized Rmax up to 0.8 normalized Rmax, high band = 0.8 normalized Rmax and over

Some entries whose results are on file:
CCGGUGAGCGACACUAGGCU (ssRNA, 2'-OMe all, PS all) [In3LSA_scr3_4]    middle band
UGAGCCGGACUUGCCU (ssRNA, 2'-OMe all, PS all) [In3E3 5' truncation 16 nt]    middle band
AGCCGGACUUGCCU (ssRNA, 2'-OMe all, PS all) [In3E3 5' truncation 14 nt]    middle band

Enquiry: Category of GUGCAUGGAAUCACGGAGUG (ssRNA, PS all, no sugar modification) [Open_A PS only (DKLS669778)] , please.
Return: middle band

Enquiry: Category of AGGCAAGUCCGGCUCACUGG (ssRNA, 2'-OMe all, PS all) [RevIn3LSA (DKLS481254)] , please.
Return: middle band

Enquiry: Category of AGUGAGCCGGACUUGC (ssRNA, 2'-OMe all, PS all) [In3E3 both-end truncation 16 nt] , please.
Return: middle band

Enquiry: Category of CGUGUCAUCCGCUCUCGACU (ssRNA, 2'-OMe all, PS all) [LSA_In3E3_CT4] , please.
Return: middle band

Enquiry: Category of AGUGAGCCGGACUUGCCU (ssRNA, 2'-OMe all, PS all) [In3E3 5' truncation 18 nt] , please.
Return: high band

Enquiry: Category of CUCAUUCCUACCGACACCCC (ssRNA, 2'-OMe all, phosphodiester, ZEN at both ends) [Neg_C ZEN (DKLS789189)] , please.
Return: low band

Enquiry: Category of CCAGUGAGCCGGACU (ssRNA, 2'-OMe all, PS all) [In3E3 3' truncation 15 nt] , please.
Return: low band

Enquiry: Category of CCAGUGAGCC (ssRNA, 2'-OMe all, PS all) [In3E3 3' truncation 10 nt] , please.
Return: low band

Enquiry: Category of CAGUGAGCCGGACUUGCC (ssRNA, 2'-OMe all, PS all) [In3E3 both-end truncation 18 nt] , please.
Return: high band

Enquiry: Category of CAGAGGCAGCAGUACGACGG (ssRNA, 2'-OMe all, PS all) [LSA_ATG] , please.
Return: high band
